tested on: purified human submaxillary enzyme (X-prolyl dipeptidyl-aminopeptidase); assay: Direct photometric assay of substrate hydrolysis with purified human submaxillary enzyme; assay type: biochemical; conditions: pH 7.0, 0.15 M Tris-maleate buffer, glycyl-L-proline p-nitroanilide = 100
Peptide text beside a SMILES is read from it. * marks the point of attachment. pNA = O=[N+]([O-])c1ccc(N*)cc1
Hi! Could you tag entries with Relative enzyme activity (%) Purified human submaxillary enzyme pH 7.0 below 90% as yes (1), and those at or above as no (0)? Much appreciated.

molecule	targetDesc	labelClass
Cc1ccc(S(=O)(=O)O)cc1.Cc1ccc(S(=O)(=O)O)cc1.NCCCC[C@H](N)C(=O)N1CCC[C@H]1C(=O)Nc1ccc([N+](=O)[O-])cc1 [L-lysyl-L-proline p-nitroanilide] (H-Lys-Pro-pNA)	purified human submaxillary enzyme (X-prolyl dipeptidyl-aminopeptidase)	no (0)
N[C@@H](CCC(=O)O)C(=O)N1CCC[C@H]1C(=O)Nc1ccc([N+](=O)[O-])cc1 [L-glutamyl-L-proline p-nitroanilide, L-Glutamyl-L-proline p-nitroanilide] (H-Glu-Pro-pNA)	purified human submaxillary enzyme (X-prolyl dipeptidyl-aminopeptidase)	yes (1)
N[C@@H](CC(=O)O)C(=O)N1CCC[C@H]1C(=O)Nc1ccc([N+](=O)[O-])cc1 [L-aspartyl-L-proline p-nitroanilide, L-Aspartyl-L-proline p-nitroanilide] (H-Asp-Pro-pNA)	purified human submaxillary enzyme (X-prolyl dipeptidyl-aminopeptidase)	yes (1)
NCC(=O)N1CCC[C@H]1C(=O)Nc1ccc([N+](=O)[O-])cc1 [glycyl-L-proline p-nitroanilide, Glycyl-L-proline p-nitroanilide] (H-Gly-Pro-pNA)	purified human submaxillary enzyme (X-prolyl dipeptidyl-aminopeptidase)	no (0)
Cc1ccc(S(=O)(=O)O)cc1.Cc1ccc(S(=O)(=O)O)cc1.N=C(N)NCCC[C@H](N)C(=O)N1CCC[C@H]1C(=O)Nc1ccc([N+](=O)[O-])cc1 [L-arginyl-L-proline p-nitroanilide] (H-Arg-Pro-pNA)	purified human submaxillary enzyme (X-prolyl dipeptidyl-aminopeptidase)	no (0)
C[C@H](N)C(=O)N1CCC[C@H]1C(=O)Nc1ccc([N+](=O)[O-])cc1.Cl [L-alanyl-L-proline p-nitroanilide] (H-Ala-Pro-pNA)	purified human submaxillary enzyme (X-prolyl dipeptidyl-aminopeptidase)	yes (1)

* * *

Attribute: Enzyme activity (μmole/min/1 serum ± S.E.)
target: X-prolyl dipeptidyl-aminopeptidase in human serum (Homo sapiens); construct: Even if crude enzyme such as human serum is used as enzyme source, the activity is accurately measured; from tissue; host or cells: human serum (normal subjects and patients); assay: Direct photometric assay of substrate hydrolysis (p-nitroaniline liberated, 385 nm) with human serum as enzyme source; type: biochemical; settings: human sera, Normal (control), 3 cases
Sequence (P27487 39-766 limits assumed): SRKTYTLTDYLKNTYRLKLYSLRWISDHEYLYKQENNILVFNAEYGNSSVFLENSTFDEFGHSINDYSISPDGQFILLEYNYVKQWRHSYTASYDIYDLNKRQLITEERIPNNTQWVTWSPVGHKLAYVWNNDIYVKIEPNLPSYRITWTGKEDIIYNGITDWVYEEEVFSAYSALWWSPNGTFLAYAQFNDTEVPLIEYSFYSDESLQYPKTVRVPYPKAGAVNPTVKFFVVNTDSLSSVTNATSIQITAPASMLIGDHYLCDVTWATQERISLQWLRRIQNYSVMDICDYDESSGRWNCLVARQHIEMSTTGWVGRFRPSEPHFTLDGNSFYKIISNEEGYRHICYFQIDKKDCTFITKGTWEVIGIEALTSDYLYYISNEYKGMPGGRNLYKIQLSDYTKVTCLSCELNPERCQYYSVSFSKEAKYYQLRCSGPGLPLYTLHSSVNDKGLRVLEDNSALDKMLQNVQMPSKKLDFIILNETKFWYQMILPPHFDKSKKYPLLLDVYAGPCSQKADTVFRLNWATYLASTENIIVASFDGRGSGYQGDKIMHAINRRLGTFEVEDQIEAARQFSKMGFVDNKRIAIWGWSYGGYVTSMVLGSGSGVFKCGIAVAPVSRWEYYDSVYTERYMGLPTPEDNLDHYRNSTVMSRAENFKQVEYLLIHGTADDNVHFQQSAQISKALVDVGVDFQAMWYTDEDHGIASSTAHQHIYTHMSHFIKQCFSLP
Peptide text beside a SMILES is read from it. * marks the point of attachment. pNA = O=[N+]([O-])c1ccc(N*)cc1
recordedEndpoint: Enzyme activity (μmole/min/1 serum ± S.E.) (μmole/min/1 serum)

compound	valueUnits	measured
N[C@@H](CCC(=O)O)C(=O)N1CCC[C@H]1C(=O)Nc1ccc([N+](=O)[O-])cc1 [L-glutamyl-L-proline p-nitroanilide, L-Glutamyl-L-proline p-nitroanilide] (H-Glu-Pro-pNA)	μmole/min/1 serum	27.5
NCC(=O)N1CCC[C@H]1C(=O)Nc1ccc([N+](=O)[O-])cc1 [glycyl-L-proline p-nitroanilide, Glycyl-L-proline p-nitroanilide] (H-Gly-Pro-pNA)	μmole/min/1 serum	50.4
Cc1ccc(S(=O)(=O)O)cc1.Cc1ccc(S(=O)(=O)O)cc1.N=C(N)NCCC[C@H](N)C(=O)N1CCC[C@H]1C(=O)Nc1ccc([N+](=O)[O-])cc1 [L-arginyl-L-proline p-nitroanilide] (H-Arg-Pro-pNA)	μmole/min/1 serum	13.8
N[C@@H](CC(=O)O)C(=O)N1CCC[C@H]1C(=O)Nc1ccc([N+](=O)[O-])cc1 [L-aspartyl-L-proline p-nitroanilide, L-Aspartyl-L-proline p-nitroanilide] (H-Asp-Pro-pNA)	μmole/min/1 serum	37.7
C[C@H](N)C(=O)N1CCC[C@H]1C(=O)Nc1ccc([N+](=O)[O-])cc1.Cl [L-alanyl-L-proline p-nitroanilide] (H-Ala-Pro-pNA)	μmole/min/1 serum	36.6
Cc1ccc(S(=O)(=O)O)cc1.Cc1ccc(S(=O)(=O)O)cc1.NCCCC[C@H](N)C(=O)N1CCC[C@H]1C(=O)Nc1ccc([N+](=O)[O-])cc1 [L-lysyl-L-proline p-nitroanilide] (H-Lys-Pro-pNA)	μmole/min/1 serum	18.2

* * *

target: X-prolyl dipeptidyl-aminopeptidase in human serum (Homo sapiens); construct: Even if crude enzyme such as human serum is used as enzyme source, the activity is accurately measured; from tissue; host or cells: human serum (normal subjects and patients); assay: Direct photometric assay of substrate hydrolysis (p-nitroaniline liberated, 385 nm) with human serum as enzyme source; assay type: biochemical; conditions: human sera from patients, Gastric Cancer, 3 cases
Peptide text beside a SMILES is read from it. * marks the point of attachment. pNA = O=[N+]([O-])c1ccc(N*)cc1
recordedEndpoint: Enzyme activity (μmole/min/1 serum ± S.E.) (μmole/min/1 serum)

compound	measured
NCC(=O)N1CCC[C@H]1C(=O)Nc1ccc([N+](=O)[O-])cc1 [glycyl-L-proline p-nitroanilide, Glycyl-L-proline p-nitroanilide] (H-Gly-Pro-pNA)	25.3
Cc1ccc(S(=O)(=O)O)cc1.Cc1ccc(S(=O)(=O)O)cc1.NCCCC[C@H](N)C(=O)N1CCC[C@H]1C(=O)Nc1ccc([N+](=O)[O-])cc1 [L-lysyl-L-proline p-nitroanilide] (H-Lys-Pro-pNA)	8.2
C[C@H](N)C(=O)N1CCC[C@H]1C(=O)Nc1ccc([N+](=O)[O-])cc1.Cl [L-alanyl-L-proline p-nitroanilide] (H-Ala-Pro-pNA)	18.5
